The origin of these recorded values is patent US20240174637A1.

Molecular target: GRK2 (Homo sapiens)
Sequence (P25098 whole entry): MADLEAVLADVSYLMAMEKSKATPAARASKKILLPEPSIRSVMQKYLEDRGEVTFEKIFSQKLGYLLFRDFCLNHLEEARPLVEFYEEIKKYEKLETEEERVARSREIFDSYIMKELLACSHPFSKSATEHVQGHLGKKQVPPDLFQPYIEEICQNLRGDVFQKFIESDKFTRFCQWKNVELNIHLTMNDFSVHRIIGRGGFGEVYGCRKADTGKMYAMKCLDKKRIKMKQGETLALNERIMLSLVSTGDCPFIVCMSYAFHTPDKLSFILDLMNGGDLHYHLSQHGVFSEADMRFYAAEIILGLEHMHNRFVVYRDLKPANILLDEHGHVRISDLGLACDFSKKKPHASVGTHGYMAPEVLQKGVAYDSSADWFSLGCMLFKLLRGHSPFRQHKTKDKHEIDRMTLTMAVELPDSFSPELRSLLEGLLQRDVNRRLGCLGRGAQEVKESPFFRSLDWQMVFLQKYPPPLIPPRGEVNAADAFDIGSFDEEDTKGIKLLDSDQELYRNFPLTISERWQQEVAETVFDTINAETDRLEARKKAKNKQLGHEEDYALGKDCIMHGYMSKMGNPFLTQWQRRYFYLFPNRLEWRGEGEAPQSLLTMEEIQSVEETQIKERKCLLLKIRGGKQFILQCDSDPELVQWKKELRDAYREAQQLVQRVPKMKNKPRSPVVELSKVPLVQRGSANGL
Experiment: GRK2 Degradation Assay and Western Blot in PAXF1657 cells
Assay type: cell-based
Set-up: endogenous in cells; host or cells: PAXF1657
Details: 1 uM, PAXF1657 EV, 24 hrs; read-out: % GRK2 degradation at 1 uM in PAXF1657 EV (24 hrs)
Procedure: General Protocol: Degradation Assay and Western Blot. PAXF1657 cells were plated in 6-well, 24-well plates or 60 mm tissue culture treated dishes and incubated at 37° C. until 70% confluency. […] Samples were mixed with NuPAGE LDS sample buffer and NuPAGE sample reducing buffer (3×), vortexed and heated at 95° C. for 10 min, and then analyzed by SDS-PAGE (NuPAGE 4-12%) followed by transfer to nitrocellulose membrane. […]
readoutKind: inhibition at 1 µM (%)

{"columns": ["compound", "unitTag", "numericReadout"],
 "data": [
  ["Cn1c(CNc2cccc(C(=O)NCc3cccc(OCCCCCn4cc(CCCCC(=O)Nc5cccc6c5CN(C5CCC(=O)NC5=O)C6=O)nn4)c3)c2)nnc1-c1ccncn1 (stereo not shown)", "%", 41]
]}

a: Cn1c(CNc2cccc(C(=O)NCc3cccc(OCCCCCCOCCOCCOCCCC(=O)Nc4cccc5c4CN(C4CCC(=O)NC4=O)C5=O)c3)c2)nnc1-c1ccncn1 (stereo not shown)
b: Cc1ncsc1-c1ccc(CNC(=O)[C@@H]2C[C@@H](O)CN2C(=O)[C@@H](NC(=O)CCCCCOCCOCCOCCCCCCOc2ccc(CNC(=O)c3cccc(NCc4nnc(-c5ccncn5)n4C)c3)cc2)C(C)(C)C)cc1
Exam item: Hello, I am sorting some records. Could you say if a or b has the smaller inhibition at 1 µM value? Indicate your choice by writing its label.
Marked response: b
(b: 23%, a: 52%)

I: Cn1c(CNc2cccc(C(=O)NCc3cccc(OCCCCCCOCCOCCOCCCCCC(=O)Nc4cccc5c4CN(C4CCC(=O)NC4=O)C5)c3)c2)nnc1-c1ccncn1 (stereo not shown)
II: Cn1c(CNc2cccc(C(=O)NCc3cccc(OCCCCCCCn4cc(CCCCC(=O)Nc5cccc6c5CN(C5CCC(=O)NC5=O)C6=O)nn4)c3)c2)nnc1-c1ccncn1 (stereo not shown)
III: Cc1ncsc1-c1ccc(CNC(=O)[C@@H]2C[C@@H](O)CN2C(=O)[C@@H](NC(=O)CCCCc2cn(CCCCCOc3cccc(CNC(=O)c4cccc(NCc5nnc(-c6ccncn6)n5C)c4)c3)nn2)C(C)(C)C)cc1
Exam item: Rank the 3 compounds: largest inhibition at 1 µM first, smallest last. Provide your answer as the labels ordered per the instruction.
Marked response: I, II, III

* * *

target: GRK2 (Homo sapiens); test: GRK2 Degradation Assay and Western Blot in PAXF1657 cells; type: cell-based; parameters: endogenous in cells; host or cells: PAXF1657; settings: Conc 1 uM; read-out: Degradation Assay - 3 point: Degradation (%)
Counter-ions that a name gives are not always drawn.
readoutKind: inhibition at 1 µM (%)

Solved entries:
{"columns": ["compound", "unitTag", "inhibition at 1 µM"],
 "data": [
  ["C[C@H](NC(=O)c1cccc(NCc2nnc(-c3ccncn3)n2C)c1)c1cccc(OCCCCCCOCCOCCOCCCC(=O)Nc2cccc3c2CN(C2CCC(=O)NC2=O)C3=O)c1 (stereo partly drawn)", "%", 19.5],
  ["Cc1ncsc1-c1ccc(CNC(=O)[C@@H]2C[C@@H](O)CN2C(=O)C(NC(=O)CCCCCOCCOCCOCCCCCCOc2ccc3c(c2)[C@H](NC(=O)c2cccc(NCc4nnc(-c5ccncn5)n4C)c2)CCO3)C(C)(C)C)cc1 (stereo partly drawn)", "%", 36.3],
  ["Cc1ncsc1-c1ccc(CNC(=O)[C@@H]2C[C@@H](O)CN2C(=O)[C@@H](NC(=O)COCCCOCCCCCOc2ccc(CNC(=O)c3cccc(NCc4nnc(-c5ccncn5)n4C)c3)cc2)C(C)(C)C)cc1", "%", -12],
  ["C[C@H](NC(=O)c1cccc(NCc2nnc(-c3ccncn3)n2C)c1)c1ccc(OCCCCCCOCCOCCOCCCCCC(=O)Nc2cccc3c2CN(C2CCC(=O)NC2=O)C3=O)cc1 (stereo partly drawn)", "%", 28],
  ["C[C@@H](NC(=O)c1cccc(NCc2nnc(-c3ccncn3)n2C)c1)c1cccc(OCCCCCOCCCOCC(=O)N2CCN(c3ccc4c(c3)CN(C3CCC(=O)NC3=O)C4=O)CC2)c1 (stereo partly drawn)", "%", 78],
  ["C[C@@H](NC(=O)c1cccc(NCc2nnc(-c3ccncn3)n2C)c1)c1cccc(OCCCCCn2cc(CCCC(=O)Nc3cccc4c3CN(C3CCC(=O)NC3=O)C4=O)nn2)c1 (stereo partly drawn)", "%", 11.1],
  ["C[C@@H](NC(=O)c1cccc(NCc2nnc(-c3ccncn3)n2C)c1)c1cccc(OCCCCCCn2cc(CCC(=O)Nc3cccc4c3CN(C3CCC(=O)NC3=O)C4=O)nn2)c1 (stereo partly drawn)", "%", 46.3],
  ["C[C@@H](NC(=O)c1cccc(NCc2nnc(-c3ccncn3)n2C)c1)c1ccc(OCCCCCCOCCOCCOCCCC(=O)N2CCN(c3ccc4c(c3)CN(C3CCC(=O)NC3=O)C4=O)CC2)cc1 (stereo partly drawn)", "%", 90.7]
]}

I: C[C@@H](NC(=O)c1cccc(NCc2nnc(-c3ccncn3)n2C)c1)c1cccc(OCCCCCCOCC(=O)N2CCN(c3cc4c(cc3F)C(=O)N(C3CCC(=O)NC3=O)C4=O)CC2)c1 (stereo partly drawn)
II: C[C@H](NC(=O)c1cccc(NCc2nnc(-c3ccncn3)n2C)c1)c1ccc(OCCCCN2CCN(c3ccc4c(c3)CN(C3CCC(=O)NC3=O)C4=O)CC2)cc1 (stereo partly drawn) [Compound D117, hydrochloride]
III: Cn1c(CNc2cccc(C(=O)N[C@@H]3CCOc4ccc(OCCCCCCOCCOCCOCCCCCC(=O)Nc5cccc6c5CN(C5CCC(=O)NC5=O)C6=O)cc43)c2)nnc1-c1ccncn1 (stereo partly drawn)
IV: Cn1c(CNc2cccc(C(=O)NCc3cccc(OCCCCCCOCCOCCOCCC(=O)Nc4cccc5c4CN(C4CCC(=O)NC4=O)C5=O)c3)c2)nnc1-c1ccncn1 (stereo not drawn)
Exam item: Which order do these items take when sorted by rising inhibition at 1 µM? List them. Reply with the item labels sorted in the order that was asked for.
Marked response: II, IV, III, I
(II: -20.5%, IV: 9.8%, III: 23.8%, I: 82.4%)
